# Test system: MOLT-4 leukemia
# Test Method Notes: NCI-60 one-dose screen, 48 h (100 = growth as untreated, 0 = no growth, -100 = all killed)
# Assay Conditions: 10 µM unless noted
This is part of a sample that, as a whole, favours compounds with a hit. Of some 83,000 tested, about 20% had one in any assay.

Compound	growth [%]
COCCNc1ccc2ncc(C#Cc3cncc(C(=O)Nc4ccc(CN5CCN(C)CC5)c(C(F)(F)F)c4)c3)n2n1	5.84
CC(Nc1c(C#N)cnc2ccc(-c3cnc(N)nc3)cc12)c1ccccc1 (stereo not drawn)	2.96
Cc1nn(-c2ccccc2)c2ncnc(N/N=C/c3cccc(O)c3)c12	22
C=C(C=O)[C@@H]1CC[C@]2(CO)CC[C@]3(C)[C@H](CC[C@@H]4[C@@]5(C)CCCNC(C)(C)[C@@H]5CC[C@]43C)[C@@H]12	28
COc1ccccc1-n1cc(C#N)c(N)c1C(=O)c1ccc(Cl)cc1	64.2
CCOC(=O)c1c(Nc2ccccc2)nn2c(-c3cccs3)ccnc12	74.5
CNCc1cccc2c1OCCCCCCC(C)(O)CC(C)(C)S(=O)(=O)c1ccc(cc1)-c1cnc(N)c(n1)C(=O)N2 (stereo not drawn)	2.61
O=[N+]([O-])c1cc(/C=N/Nc2nc(N/N=C/c3ccc(Cl)c([N+](=O)[O-])c3)nc(N3CCCCC3)n2)ccc1Cl	42.3
CC(=O)Nc1cccc(Nc2nc(N[C@H](C)c3ccccc3)c3ccccc3n2)c1	16.8
Cc1ccc(CSc2nc(-c3ccc(Cl)cc3)c(C#N)c(N3CCOCC3)n2)cc1	85
C#Cc1nc(C(C)=O)cs1	101
C[C@@H]1C[C@H]2C(=O)O[C@@H](C)C(NC(=O)[C@H](Cc3cc(F)cc(F)c3)NC(=O)Nc3ccc(Cl)cc3F)C(=O)N3CCC[C@H]3C(=O)N3CCCC[C@H]3C(=O)N[C@@H](CO)C(=O)N2C1 (stereo partly drawn)	36.5
C#C[C@]1(O)CC[C@H]2[C@@H]3CC=C4c5sc(-c6ccc(C)cc6)nc5CC[C@]4(C)[C@H]3CC[C@@]21C	-2.14
O=C(Nc1nc2ccc([N+](=O)[O-])cc2s1)Nc1ccccc1Br	27.1
Cn1cc(-c2cc(N)n3nc(-c4cn(C)c5ccccc45)cc3n2)c2ccccc21	49.8
CCCn1cnc2c(c1=N)C(c1ccc(F)cc1)c1sc3c(C)cccc3c1O2 (stereo not drawn)	40
O=C(CSc1nnc(-c2ccc3nc(-c4ccccc4)[nH]c3c2)o1)Nc1ccc(C(=O)/C=C/c2ccccc2)cc1	93.2
O=C(Nc1cccc(Cl)c1)Nc1nc2ccc([N+](=O)[O-])cc2o1	9.15

* * *

# Tested on: LOX IMVI melanoma
# Test Method Notes: NCI-60 one-dose screen, 48 h
# Assay Conditions: 10 µM unless noted
This is part of a sample that, as a whole, favours compounds with a hit. Of some 83,000 tested, about 20% had one in any assay. Activity calls are given as the source filed them. How the source made its calls: active means growth percent below 10; inactive means the rest.
Labels: active, inactive

Compound	Qualitative Label
CC[C@@H](CO)Nc1ccc2ncc(C#Cc3cncc(C(=O)Nc4ccc(CN5CCN(C)CC5)c(C(F)(F)F)c4)c3)n2n1	active
Nc1ccccc1NC(=O)c1ccc(NC(=O)C/C=C/c2cccnc2)cc1	inactive
O=C(CN1CCN(c2cc(=O)n(-c3ccccc3)c3ccccc23)CC1)Nc1ccc(F)cc1	inactive
O=C(NNc1nc2cc(F)ccc2n2c(CN3CCC(O)C3)ccc12)c1cnccn1 (stereo not drawn)	active
CS(=O)(=O)c1ncc(-c2ccccc2)cn1	inactive
COc1ccc(S(=O)(=O)NCCCNc2nccc(-c3[nH]c(-c4ccccc4)nc3-c3ccc(Cl)c(O)c3)n2)cc1	inactive
N#Cc1cnc2ccc(-c3cnc4[nH]ncc4c3)cc2c1N1CCc2cc(F)c(Cl)cc21	active
O=S(=O)(NCCCNc1nccc(-n2cnc3ccccc32)n1)c1ccc(C(F)(F)F)cc1	inactive
NS(=O)(=O)c1ccc(-n2cc(-c3cccc(NC(=O)c4ccc(N5CCOCC5)c(C(F)(F)F)c4)c3)nn2)cc1	active
CN(C)CCNC(=O)c1ccc(-c2nc3ccc4[nH]ncc4c3c3c2COCC3)cc1	active
Nc1nc(-c2cccc([N+](=O)[O-])c2)c(N=Nc2cccc([N+](=O)[O-])c2)s1	inactive
O=C(CN1CCN(c2cc(=O)n(-c3ccccc3)c3ccccc23)CC1)Nc1nc(-c2ccccc2)cs1	inactive
CCNC(=O)N1CCc2cc(OC)c(OCCc3ccc(OC)cc3)cc2C1c1ccc(Cl)cc1C (stereo not drawn)	active
COc1cc2oc(-c3cccc(C(=O)N[C@@H](CC(C)C)C(=O)OC(C)(C)C)c3)cc(=O)c2c(OC)c1OC	inactive
CC(=O)N1N=C(c2cccc(-n3cccc3)c2)CC1c1cccc(F)c1 (stereo not drawn)	inactive
COc1cc(OC)c(S(N)(=O)=O)cc1C(=O)/C=C/c1ccc(C)cc1	active
C=CCOc1cccc(/C=C2\SC(=S)N(C3CC(=O)N(c4ccc(Br)cc4)C3=O)C2=O)c1 (stereo not drawn)	inactive
COc1ccc(OC)c(-c2nc(SCC(=O)c3ccc(Br)cc3)nc(Nc3ccc(S(N)(=O)=O)cc3)c2C#N)c1	inactive

* * *

# System: UO-31 renal
# Test Method Notes: NCI-60 one-dose screen, 48 h
# Assay Conditions: 10 µM unless noted
The panel holds about 83,000 compounds, 20% with a hit somewhere; the sample as a whole holds those more often. Activity calls are given as the source filed them. How the source made its calls: active means growth percent below 10; inactive means the rest.
Labels: 1 = active, 0 = inactive

Molecule	Qualitative Label
C=CCn1c(SCC(=O)Nc2ccc(C(=O)/C=C/c3cc(OC)c(OC)c(OC)c3)cc2)nnc1-c1c[nH]c2ccccc12	0
O=C(CSc1nnc(-c2ccc3nc(-c4ccccc4)[nH]c3c2)o1)Nc1ccc(C(=O)/C=C/c2ccccc2)cc1	0
N/C(=N\C(N)=N\c1nc2ccccc2s1)c1ccc(C(F)(F)F)cc1	1
CNC(=O)c1cc(Oc2ccc3nc(NC(=O)c4cc(N5CCOCC5)cc(C(F)(F)F)c4)sc3c2)ccn1	0
CN(C)C(=O)c1cc(-c2ccc3ncnc(NCc4ccccc4)c3c2)cnc1N	0
COc1cccc(C(=O)Nc2cccc(C#Cc3cccc4[nH]nc(N)c34)c2)c1	0
NS(=O)(=O)c1ccc(-n2cc(CN3CCCCC3)nn2)cc1	0
COc1cc(C2N=C(NNc3ccccc3)NC(C)=C2C(C)=O)ccc1O (centres undefined)	0
O=S(=O)(NCCNc1nccc(-n2cnc3ccccc32)n1)c1ccc(Cl)cc1	0
CC[C@H](CO)Nc1ccc2ncc(C#Cc3cncc(C(=O)Nc4ccc(CN5CCN(C)CC5)c(C(F)(F)F)c4)c3)n2n1	1
O=C(NCc1ncc[nH]1)c1ccc(-c2nc3ccc4[nH]ncc4c3c3c2CCCC3)cc1	0
CNc1ncc2cc(-c3ccc(-c4ncccc4F)cc3Cl)c(=O)n(CC3OCC(N)CO3)c2n1 (centres undefined)	1
CC(=O)N1C(=S)NC(=O)C1CC(C)C (centres undefined)	0
COc1ccc(C2CC(c3ccc(Nc4nc(NCCO)nc(N5CCOCC5)n4)cc3)=Nc3c(N)nc(N)nc3N2)cc1 (centres undefined)	0
O=C(Nc1cccc(C(F)(F)F)c1)c1cc(-c2ccc(F)cc2F)ccc1O	1
c1ccc(C(c2nc3ncncc3[nH]2)N2CSc3nc4ncncc4n3C2)cc1 (centres undefined)	0
CCCCc1nc(/C=N/Nc2nc(Nc3ccccc3)nc(Nc3ccc(S(N)(=O)=O)cc3)n2)c(Cl)[nH]1	0
CC/C(=C/c1cc(OC)ccc1O)c1ccc2cc(OC)ccc2[o+]1	0
Cn1cc(-c2nc(N)nnc2-c2c[nH]c3ccccc23)c2cc(Br)ccc21	0

* * *

# Test system: TK-10 renal
# Test Method Notes: NCI-60 one-dose screen, 48 h
# Assay Conditions: 10 µM unless noted
About 83,000 compounds went through this panel and 20% of them were active in at least one assay; those are over-represented in the sample as a whole. Calls of active or inactive are those of the source. The calls were made as follows: active = growth percent below 10; inactive = the rest.
Labels: yes for active, no for inactive

Molecule	Qualitative Label
COc1ccccc1NCc1cccn1Cc1ccc(F)cc1	no
Cc1cc(C)c(N2C(=O)CC(Nc3ccc(Cl)cc3Cl)C2=O)c(C)c1 (stereo not given)	no
COc1ccc2[nH]cc(/C=N/Nc3nc4ccccc4s3)c2c1	no
Nc1ncc(-c2ccc3ncnc(Nc4cccc(Cl)c4F)c3c2)cn1	yes
Nc1nc(-c2cccc([N+](=O)[O-])c2)c(N=Nc2cccc([N+](=O)[O-])c2)s1	yes
NC/C(=C/F)COc1ccc2nc(NCc3cccnc3)oc2c1	no
CCOC(=O)c1c(Nc2ccccc2)nn2c(-c3cccs3)ccnc12	no
CC(C)(C)c1ccc(C(=O)Nc2sc3c(c2C(N)=O)CCC(O)C3)cc1 (stereo not given)	no
NS(=O)(=O)c1ccc(Nc2nc(SCc3ccccc3)nc3ccccc23)cc1	no
COc1ccc(/C=C(\C#N)C(=O)N2c3ccccc3Sc3ccc(SC)cc32)cc1F	no
ClC(Cl)c1nc(-c2ccco2)n2nc(-c3ccccc3)cc2n1	no
C=C(C=O)[C@@H]1CC[C@]2(COC(C)=O)CC[C@]3(C)C(CC[C@@H]4[C@@]5(C)CC[C@H](OC(C)=O)C(C)(C)[C@@H]5CC[C@]43C)[C@@H]12 (stereo not given in full)	no
C[C@@H]1C[C@H]2C(=O)O[C@@H](C)C(NC(=O)[C@H](Cc3cc(F)cc(F)c3)NC(=O)Nc3ccc(Cl)cc3F)C(=O)N3CCC[C@H]3C(=O)N3CCCC[C@H]3C(=O)N[C@@H](CO)C(=O)N2C1 (stereo not given in full)	no
CNc1ncc2cc(-c3ccc(-c4ncccc4F)cc3Cl)c(=O)n(CC3OCC(N)CO3)c2n1 (stereo not given)	no
C=C1CC[C@@H]2[C@]3(C)COC(c4ccccc4)O[C@@H]3CC[C@@]2(C)[C@@H]1C/C=C1/C(=O)OC[C@H]1O (stereo not given in full)	no
CC1=NC2=NC(=O)/C(=C3/N=C(C)C=C(c4ccccc4)N3N)NN2C(c2ccccc2)=C1	no
COc1ccc(/C=C/C(=O)c2cc(S(N)(=O)=O)c(OC)cc2OC)cc1	no
COc1ccc(-c2nc3cccc(O)c3c(=O)n2Cc2ccccc2)cc1COc1ccc(NC(C)=O)cc1	no
COc1cc(-c2nc(SC(C)C)n(C(C)C)c(=O)c2C#N)ccc1OCc1ccccc1	no
COc1ccc(/C(N)=N/C(N)=N/c2nc3ccccc3s2)cc1	no
O=C(CCn1c[n+](CC(=O)c2ccc(F)cc2)c2ccccc21)Nc1cccc2cccnc12	no
C#CCOc1ccc(/C=N\Nc2nc(-c3ccc(C)cc3)cs2)cc1OC	no
O=C(CSc1nc2ccccc2c(=O)n1-c1ccccc1)Nc1ccc(-c2nc3ccc([N+](=O)[O-])cc3[nH]2)cc1	no
Cn1ccnc1C(=O)/C=C/c1ccc(NC(=O)c2c(F)c(F)c(F)c(F)c2F)cc1	no
COc1ccc(-c2nc3ccc(-c4nnc(SCC(=O)Nc5ccc(C(=O)/C=C/c6ccc(Cl)cc6)cc5)o4)cc3[nH]2)cc1	no
Cc1ccc(NC(=O)N[C@@H](Cc2cc(F)cc(F)c2)C(=O)NC2C(=O)N3C[C@H](O)C[C@H]3C(=O)N3CCCC[C@H]3C(=O)N[C@@H](CO)C(=O)N3C[C@H](C)C[C@H]3C(=O)O[C@H]2C)c(F)c1 (stereo not given in full)	no
CCOc1ccccc1NC1=C(Cl)C(=O)c2nc(C)ccc2C1=O	no
O=C(NNc1nc2cc(F)ccc2n2c(CO)ccc12)c1cnccn1	no
COc1ccc(-c2nc3cc(Cl)c(Cl)cc3n2CC(=O)N=Nc2c(O)[nH]c3ccc(OC)cc23)cc1	no
CC1(C)CC[C@]2(C(=O)N3CCOCC3)CC[C@]3(C)C(=CC[C@@H]4[C@@]5(C)C/C(=C/c6ccco6)C(=O)C(C)(C)[C@@H]5CC[C@]43C)[C@@H]2C1	no
C[C@H]1c2[nH]c3ccccc3c2C[C@H]2C(=O)N(CCCCCCC(=O)NO)CC(=O)N21	no
CC1(C)CC[C@]2(CN)CC[C@]3(C)C(=CC[C@@H]4[C@@]5(C)CCCNC(C)(C)[C@@H]5CC[C@]43C)[C@H]2C1	no
COc1cc(-c2nc(SCCC(C)C)nc(NNC(=O)c3ccncc3)c2C#N)cc(OC)c1OC	no
CCNC(=O)N1CCc2cc(OC)c(OCCc3ccc(OC)c(N)c3)cc2C1c1ccc(C)cc1C (stereo not given)	no
Nc1nc(-c2cccc([N+](=O)[O-])c2)c(N=Nc2ccc(Br)cc2)s1	yes

From: PubChem BioAssay (NCI)
